Data origin: the supplement of paper PMC9694430

System: LOC_OS03G04050-cb001
Assay: thermal shift delta Tm vs DMSO control; higher = stronger stabilization (binding);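 further: purified Escherichia coli-expressed rice kinase domain construct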
Conditions: 12.5 µM; protein concentration 2 µM
Kindly supply the reported thermal shift delta Tm values for the records listed here.
Give bare numbers, in °C.

Solved entries:
{"columns": ["compound", "tested.system", "quantity.unit", "assay.value"],
 "data": [
  ["Nc1nc2cc(-c3ccc4ncc(C(=O)N5CCOCC5)n4c3)ccc2o1", "LOC_OS03G04050-cb001", "°C", 0.57],
  ["O=C1Cc2c([nH]c3ccc(Br)cc23)-c2ccccc2N1", "LOC_OS03G04050-cb001", "°C", 0.51],
  ["Cc1cc(Nc2ncnc3ccc(NC4=NC(C)(C)CO4)cc23)ccc1Oc1ccn2ncnc2c1", "LOC_OS03G04050-cb001", "°C", 0.65],
  ["CC1=C(C(=O)Nc2cc3cn[nH]c3cc2F)C(c2ccc(C(F)(F)F)cc2)CC(=O)N1 (stereo not given)", "LOC_OS03G04050-cb001", "°C", 0.03],
  ["Cn1ncc(Cl)c1-c1cc(C(=O)N[C@H](CN)Cc2ccc(F)c(F)c2)oc1Cl", "LOC_OS03G04050-cb001", "°C", 0.46],
  ["CN1CCN(c2ccc3nc(-c4c(N)c5c(F)cccc5[nH]c4=O)[nH]c3c2)CC1 [Dovitinib (TKI-258, CHIR-258)]", "LOC_OS03G04050-cb001", "°C", 0.58]
]}

Give one value of thermal shift delta Tm per listed compound.
1. COc1ccc(CC(=O)Nc2nc3c(s2)CCc2ccccc2-3)cc1OC
2. O=C1Nc2ccc(I)cc2/C1=C/c1cc(Br)c(O)c(Br)c1
3. C#Cc1cccc(Nc2ncnc3cc4c(cc23)OCCOCCOCCO4)c1
4. CC(C)c1cnn2c(NCc3ccccc3-n3cccn3)nc(OC3CCCNC3)nc12 (stereo not given)
5. O=C(NOCC(O)CO)c1cc(Br)c(F)c(F)c1Nc1ccc(I)cc1F (stereo not given)
6. CCCCNc1ncc2c(-c3ccc(CN4CCN(C)CC4)cc3)cn([C@H]3CC[C@H](O)CC3)c2n1

Result:
1. 0.51
2. 0.81
3. 0.58
4. 0.32
5. 0.63
6. 0.12

Give one value of thermal shift delta Tm per listed compound.
1. C[C@@H](NC(=O)c1ncnc(N)c1Cl)c1ncc(C(=O)Nc2cc(C(F)(F)F)c(Cl)cn2)s1
2. C=C(C)[C@@H]1CC[C@]2(C)CC[C@]3(C)[C@H](CC[C@@H]4[C@@]5(C)CC[C@H](O)C(C)(C)[C@@H]5CC[C@]43C)[C@@H]12

Result:
[0.36, 0.67]

Give one value of thermal shift delta Tm per listed compound.
1. COc1ccc2[nH]cc(/C=C3\C(=O)Nc4ccc(NC(=O)CCN5CCCCC5)cc43)c2c1
2. CCOc1cc2ncc(C#N)c(Nc3ccc(F)c(Cl)c3)c2cc1NC(=O)/C=C/CN(C)C [Pelitinib (EKB-569)]
3. CO[C@@H](C(=O)N1Cc2[nH]nc(NC(=O)c3ccc(N4CCN(C)CC4)cc3)c2C1)c1ccccc1

Result:
1. 0.56
2. 0.32
3. 0.25

----------
Test system: LOC_OS05G28520-cb001
Assay: thermal shift delta Tm vs DMSO control; higher = stronger stabilization (binding)
Conditions: 12.5 µM; protein concentration 2 µM
Kindly supply the reported thermal shift delta Tm values for the records listed here.
Numbers only, in °C.

Solved entries:
{"columns": ["molecule", "quantity.unit", "thermal shift delta Tm"],
 "data": [
  ["Cc1[nH]nc2ccc(-c3cncc(OC[C@@H](N)Cc4ccccc4)c3)cc12", "°C", 0.6],
  ["COc1ncc(-c2cc(-c3ncc(CN4C[C@@H](C)O[C@@H](C)C4)o3)c3cn[nH]c3c2)cc1NS(C)(=O)=O", "°C", 0.61],
  ["CNc1nc(Nc2cnn([C@H]3CCN(C4COC4)C[C@@H]3F)c2Cl)ncc1C(F)(F)F", "°C", 0.59],
  ["CN1C(=O)[C@@H](NC(=O)c2n[nH]c(Cc3ccccc3)n2)COc2ccccc21", "°C", -0.04]
]}

Give one value of thermal shift delta Tm per listed molecule.
1. CN(C)CCOc1ccc(-c2nc(-c3ccncc3)c(-c3ccc4c(c3)CC/C4=N\O)[nH]2)cc1
2. COc1cc(N2CCC(N(C)C)CC2)ccc1Nc1ncc(Cl)c(Nc2ccccc2P(C)(C)=O)n1
3. O=C1Nc2ccc(CN3C(=O)CSC3=O)cc2/C1=C/c1cc(CN2CCOCC2)c[nH]1

Result:
1: -0.03; 2: 0.2; 3: 0.01

Give one value of thermal shift delta Tm per listed molecule.
1. Cc1cc(Nc2cc(N3CCN(C)CC3)nc(/C=C/c3ccccc3)n2)n[nH]1 [ENMD-2076 L-(+)-Tartaric acid]
2. CN1CCN(S(=O)(=O)c2ccc(-c3cnc(N)c(C(=O)Nc4cccnc4)n3)cc2)CC1
3. Cn1ncc(Cl)c1-c1cc(C(=O)N[C@H](CN)Cc2ccc(F)c(F)c2)oc1Cl
4. Cc1cc(CS(=O)(=O)c2ccccc2)cc(OCc2ccc(CN3CCC[C@@H]3CO)cc2)c1
5. C[C@@H](N)c1ccc(C(=O)Nc2ccnc3[nH]ccc23)cc1
6. Oc1cccc(-c2nc(N3CCOCC3)c3oc4ncccc4c3n2)c1
7. CNC(=O)c1cc(COc2nnc(Nc3ccc(Cl)cc3)c3ccoc23)ccn1
8. O=C1Nc2ccccc2/C1=C1/Nc2ccccc2C1=O

Result:
5.68
0.68
1.26
0.56
0.67
0.51
0.37
0.79

Give one value of thermal shift delta Tm per listed molecule.
1. COc1cc2ncc(-c3ccccc3)nc2cc1OC
2. CNS(=O)(=O)Nc1nccc(Cc2c(C)c3ccc(Oc4ncccn4)cc3oc2=O)c1F
3. COc1ccc(-c2ccc3c(N4CCOC[C@@H]4C)nc(N4CCOC[C@@H]4C)nc3n2)cc1CO
4. COc1cc2ncnc(Oc3ccc(CC(=O)Nc4cnn(C(C)C)c4)cc3)c2cc1OC

Result:
1: -0.06; 2: 0.32; 3: 0.13; 4: 0.43

Give one value of thermal shift delta Tm per listed molecule.
1. CC(C)(C)c1cc(NC(=O)Nc2ccc(Oc3ccnc4[nH]c(=O)cnc34)cc2F)n(-c2ccccc2)n1
2. COc1c(C)c(C(=O)c2ccc(N)c(C(=O)O)c2)n2ccccc12
3. C[C@H](CN(C)C)Oc1nc(Nc2cc3cccc(Cl)c3cn2)cnc1C#N
4. CS(=O)(=O)CCNCc1ccc(-c2ccc3ncnc(Nc4ccc(OCc5cccc(F)c5)c(Cl)c4)c3c2)o1
5. COc1cc(F)c(F)c(Nc2ccc(I)cc2F)c1NS(=O)(=O)C1(C[C@H](O)CO)CC1 [Refametinib (RDEA119, Bay 86-9766)]
6. CCCCNc1ncc(-c2ccc(CN3CCOCC3)cn2)c(NC2CCC(O)CC2)n1 (stereo unspecified)
7. CC(C)CC(=O)Nc1n[nH]c2c1CN(C(=O)C1CCN(C)CC1)C2(C)C

Result:
0.57
0.86
0.32
0.97
1.02
0.2
0.19
